Target: ATM (Homo sapiens)
Construct: detecting phosphorylation of Chk2 in a human non-small cell lung cancer cell line NCI-H460 (ATCC company); host or cells: NCI-H460 human non-small cell lung cancer cells
Sequence (Q13315 whole entry): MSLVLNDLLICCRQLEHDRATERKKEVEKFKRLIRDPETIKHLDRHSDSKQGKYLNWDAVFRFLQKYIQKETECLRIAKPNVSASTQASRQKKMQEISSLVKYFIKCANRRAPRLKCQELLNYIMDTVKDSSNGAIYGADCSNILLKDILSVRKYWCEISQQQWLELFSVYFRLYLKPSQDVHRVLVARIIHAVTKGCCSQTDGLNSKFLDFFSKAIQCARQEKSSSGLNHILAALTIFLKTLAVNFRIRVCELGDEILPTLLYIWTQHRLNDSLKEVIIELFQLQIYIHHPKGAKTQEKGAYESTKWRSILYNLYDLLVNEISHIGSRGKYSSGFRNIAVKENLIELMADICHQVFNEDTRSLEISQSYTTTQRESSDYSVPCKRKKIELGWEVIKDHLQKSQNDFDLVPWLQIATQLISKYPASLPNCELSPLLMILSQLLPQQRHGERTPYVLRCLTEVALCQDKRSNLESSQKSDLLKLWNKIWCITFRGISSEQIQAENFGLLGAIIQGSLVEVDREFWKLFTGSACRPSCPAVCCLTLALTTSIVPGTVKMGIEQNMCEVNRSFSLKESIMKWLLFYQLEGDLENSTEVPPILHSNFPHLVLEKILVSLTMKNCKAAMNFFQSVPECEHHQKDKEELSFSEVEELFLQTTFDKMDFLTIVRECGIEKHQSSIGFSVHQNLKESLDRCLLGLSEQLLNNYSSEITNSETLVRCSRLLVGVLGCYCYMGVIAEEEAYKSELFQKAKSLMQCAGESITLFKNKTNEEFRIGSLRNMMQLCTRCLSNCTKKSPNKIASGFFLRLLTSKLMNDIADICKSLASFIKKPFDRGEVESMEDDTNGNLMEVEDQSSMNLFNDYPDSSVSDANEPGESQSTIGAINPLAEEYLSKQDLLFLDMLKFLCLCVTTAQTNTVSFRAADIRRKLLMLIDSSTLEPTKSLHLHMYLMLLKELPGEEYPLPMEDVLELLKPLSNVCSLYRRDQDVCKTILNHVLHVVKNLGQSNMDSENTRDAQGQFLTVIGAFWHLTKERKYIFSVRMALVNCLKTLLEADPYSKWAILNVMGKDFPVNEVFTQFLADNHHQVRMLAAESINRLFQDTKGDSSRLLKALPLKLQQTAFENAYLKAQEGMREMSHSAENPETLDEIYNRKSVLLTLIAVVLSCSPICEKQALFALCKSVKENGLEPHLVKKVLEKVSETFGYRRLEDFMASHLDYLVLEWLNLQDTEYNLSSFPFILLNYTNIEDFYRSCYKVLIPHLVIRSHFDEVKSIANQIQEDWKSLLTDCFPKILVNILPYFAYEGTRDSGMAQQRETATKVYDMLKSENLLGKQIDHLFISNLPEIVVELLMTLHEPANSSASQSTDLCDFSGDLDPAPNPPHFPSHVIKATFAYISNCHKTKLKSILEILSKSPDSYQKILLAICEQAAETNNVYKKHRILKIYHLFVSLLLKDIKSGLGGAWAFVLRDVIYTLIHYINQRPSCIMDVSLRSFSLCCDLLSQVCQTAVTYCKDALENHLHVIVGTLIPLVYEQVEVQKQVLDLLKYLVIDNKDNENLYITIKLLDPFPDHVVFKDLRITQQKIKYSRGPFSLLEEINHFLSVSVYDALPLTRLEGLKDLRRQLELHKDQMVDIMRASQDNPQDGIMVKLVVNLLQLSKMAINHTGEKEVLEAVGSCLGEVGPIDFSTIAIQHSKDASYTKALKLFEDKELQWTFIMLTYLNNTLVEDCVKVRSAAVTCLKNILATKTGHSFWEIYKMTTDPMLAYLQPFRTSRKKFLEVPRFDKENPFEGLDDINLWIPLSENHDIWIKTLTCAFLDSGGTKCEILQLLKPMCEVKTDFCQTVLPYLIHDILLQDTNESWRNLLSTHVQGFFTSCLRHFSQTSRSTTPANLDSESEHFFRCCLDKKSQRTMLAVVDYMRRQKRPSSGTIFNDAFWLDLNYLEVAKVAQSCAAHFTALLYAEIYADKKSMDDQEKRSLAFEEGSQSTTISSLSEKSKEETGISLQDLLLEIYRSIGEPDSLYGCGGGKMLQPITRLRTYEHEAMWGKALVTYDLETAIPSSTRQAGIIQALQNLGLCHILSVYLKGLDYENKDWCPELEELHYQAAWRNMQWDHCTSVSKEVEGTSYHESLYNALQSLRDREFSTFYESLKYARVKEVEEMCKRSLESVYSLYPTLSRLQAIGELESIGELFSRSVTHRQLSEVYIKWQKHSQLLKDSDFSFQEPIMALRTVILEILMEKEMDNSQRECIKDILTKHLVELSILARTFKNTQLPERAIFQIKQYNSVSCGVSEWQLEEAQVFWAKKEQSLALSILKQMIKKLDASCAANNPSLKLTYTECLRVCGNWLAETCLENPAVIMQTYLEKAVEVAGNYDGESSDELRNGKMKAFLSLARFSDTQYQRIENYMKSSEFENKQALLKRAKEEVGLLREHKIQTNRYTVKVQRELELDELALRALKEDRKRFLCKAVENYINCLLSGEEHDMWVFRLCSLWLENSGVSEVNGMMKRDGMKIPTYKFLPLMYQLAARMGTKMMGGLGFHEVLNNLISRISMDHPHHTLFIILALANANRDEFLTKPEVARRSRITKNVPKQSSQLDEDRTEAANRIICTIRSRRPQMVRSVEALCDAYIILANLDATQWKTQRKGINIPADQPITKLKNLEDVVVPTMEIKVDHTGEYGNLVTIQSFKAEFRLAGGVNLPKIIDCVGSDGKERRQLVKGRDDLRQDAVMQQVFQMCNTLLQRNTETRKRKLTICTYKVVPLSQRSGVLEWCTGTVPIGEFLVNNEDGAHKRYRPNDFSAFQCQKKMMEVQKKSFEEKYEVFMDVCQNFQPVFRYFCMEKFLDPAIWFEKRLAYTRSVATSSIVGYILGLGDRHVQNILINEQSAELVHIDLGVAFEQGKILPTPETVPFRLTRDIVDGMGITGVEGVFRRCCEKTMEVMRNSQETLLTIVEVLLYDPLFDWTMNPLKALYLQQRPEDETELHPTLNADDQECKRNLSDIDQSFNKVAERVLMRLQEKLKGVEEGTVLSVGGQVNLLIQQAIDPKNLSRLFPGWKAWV
Assay: ATM inhibition test (phosphorylation of Chk2 generated by ionizing radiation, AlphaScreen SureFire)
Assay type: cell-based
Conditions: phosphorylated Chk2 in NCI-H460 cells, ionizing radiation 8Gy, 1 hour after test compound treatment; read-out: ATM inhibitory activity
Description: ATM inhibitory effects of a test compound were measured by detecting phosphorylation of Chk2 in a human non-small cell lung cancer cell line NCI-H460 (ATCC company). The level of phosphorylated Chk2 generated by an ionizing radiation was measured using AlphaScreen SureFire (TGR Biosciences). The cells were seeded by 40000 cells per well in 96-well CellBIND® plates (Corning International Inc.), and incubated at 37° C. overnight in 5% CO2. […]
value kind: IC50

# annotated cases, reported IC50 shown
> print(dat)
                                    compound     measurement
 1  CC(CN1CCN(Cc2ccccc2)CC1)Nc1ccc2c(c1)Sc1cccc(-c3cc(N4CCOCC4)cc(=O)[nH]3)c1S2 (stereo not shown)   100 to 500 nM
 2  CN1CCC(Nc2ccc3c(c2)Sc2cccc(-c4cc(N5CCOCC5)cc(=O)[nH]4)c2S3)CC1        < 100 nM
 3  CC(C)Nc1cncc(CNc2ccc3c(c2)Sc2cccc(-c4cc(N5CCOCC5)cc(=O)[nH]4)c2O3)c1   100 to 500 nM
 4  CCN(C)CCC(Nc1ccc2c(c1)Sc1cccc(-c3cc(N4CCOCC4)cc(=O)[nH]3)c1S2)c1ccc(C)cn1 (single isomer, unassigned)        < 100 nM
 5  O=c1cc(N2CCOCC2)cc(-c2cccc3c2Oc2ccc(NCc4cccc(C(F)(F)F)c4)cc2C3)[nH]1   100 to 500 nM
 6  O=c1cc(N2CCOCC2)cc(-c2cccc3c2Oc2ccc(NCc4cnccc4Cl)cc2S3)[nH]1   100 to 500 nM
 7  CN1CCN(C(=O)CNc2ccc3c(c2)Sc2cccc(-c4cc(N5CCOCC5)cc(=O)[nH]4)c2S3)CC1  500 to 2000 nM
 8  O=c1cc(N2CCOCC2)cc(-c2cccc3c2Sc2ccc(NC4CCCC4N4CCOCC4)cc2S3)[nH]1 (single isomer, unassigned) [Example 1-16-1-2]        < 100 nM
 9  Cc1ccc(C(CCN(C)CCN(C)C)Nc2ccc3c(c2)Sc2cccc(-c4cc(N5CCOCC5)cc(=O)[nH]4)c2S3)nc1 (single isomer, unassigned)        < 100 nM
10  COCC[C@H](CN1CCOCC1)Nc1ccc2c(c1)Sc1cccc(-c3cc(N4CCOCC4)cc(=O)[nH]3)c1S2        < 100 nM

Ask: Record request: IC50 value, item Cc1cccc(C(CCO)Nc2ccc3c(c2)Sc2cccc(-c4cc(N5CCOCC5)cc(=O)[nH]4)c2S3)n1 (stereo not shown)
Result: 100 to 500 nM

Ask: For the compound shown here, CC(Nc1ccc2c(c1)Cc1cccc(-c3cc(N4CCOCC4)cc(=O)[nH]3)c1O2)c1cncc(Cl)c1 (stereo not shown) , give the reported IC50.
Result: 100 to 500 nM

Ask: Value lookup for IC50; key = COC[C@H](CN1C[C@@H](C)O[C@@H](C)C1)Nc1ccc2c(c1)Sc1cccc(-c3cc(N4CCOCC4)cc(=O)[nH]3)c1S2
Result: < 100 nM
